Molecular target: Integrin alpha-IIb/beta-3 (Homo sapiens, UniProt P08514+P05106)
Sequence (P05106 27-788 limits assumed): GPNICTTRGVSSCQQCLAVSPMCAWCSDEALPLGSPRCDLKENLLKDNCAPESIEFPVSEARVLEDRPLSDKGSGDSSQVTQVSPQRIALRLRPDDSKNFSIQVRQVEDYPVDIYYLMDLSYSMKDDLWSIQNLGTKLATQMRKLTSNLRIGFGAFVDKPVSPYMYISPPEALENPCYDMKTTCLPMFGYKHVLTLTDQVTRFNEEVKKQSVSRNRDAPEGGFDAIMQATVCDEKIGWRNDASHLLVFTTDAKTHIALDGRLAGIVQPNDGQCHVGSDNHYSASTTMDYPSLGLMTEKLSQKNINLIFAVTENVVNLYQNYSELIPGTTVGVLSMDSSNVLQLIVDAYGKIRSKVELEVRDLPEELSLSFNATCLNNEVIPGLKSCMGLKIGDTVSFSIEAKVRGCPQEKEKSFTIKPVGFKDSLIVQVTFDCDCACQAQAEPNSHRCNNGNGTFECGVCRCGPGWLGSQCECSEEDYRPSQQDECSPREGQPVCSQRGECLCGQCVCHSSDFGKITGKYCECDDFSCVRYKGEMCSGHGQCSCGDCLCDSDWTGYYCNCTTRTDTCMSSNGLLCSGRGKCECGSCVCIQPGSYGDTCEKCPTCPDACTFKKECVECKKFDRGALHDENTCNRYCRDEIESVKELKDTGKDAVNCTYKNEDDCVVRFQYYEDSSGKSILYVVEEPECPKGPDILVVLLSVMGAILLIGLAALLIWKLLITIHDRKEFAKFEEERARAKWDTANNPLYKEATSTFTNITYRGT
Sequence (P08514 32-887 limits assumed): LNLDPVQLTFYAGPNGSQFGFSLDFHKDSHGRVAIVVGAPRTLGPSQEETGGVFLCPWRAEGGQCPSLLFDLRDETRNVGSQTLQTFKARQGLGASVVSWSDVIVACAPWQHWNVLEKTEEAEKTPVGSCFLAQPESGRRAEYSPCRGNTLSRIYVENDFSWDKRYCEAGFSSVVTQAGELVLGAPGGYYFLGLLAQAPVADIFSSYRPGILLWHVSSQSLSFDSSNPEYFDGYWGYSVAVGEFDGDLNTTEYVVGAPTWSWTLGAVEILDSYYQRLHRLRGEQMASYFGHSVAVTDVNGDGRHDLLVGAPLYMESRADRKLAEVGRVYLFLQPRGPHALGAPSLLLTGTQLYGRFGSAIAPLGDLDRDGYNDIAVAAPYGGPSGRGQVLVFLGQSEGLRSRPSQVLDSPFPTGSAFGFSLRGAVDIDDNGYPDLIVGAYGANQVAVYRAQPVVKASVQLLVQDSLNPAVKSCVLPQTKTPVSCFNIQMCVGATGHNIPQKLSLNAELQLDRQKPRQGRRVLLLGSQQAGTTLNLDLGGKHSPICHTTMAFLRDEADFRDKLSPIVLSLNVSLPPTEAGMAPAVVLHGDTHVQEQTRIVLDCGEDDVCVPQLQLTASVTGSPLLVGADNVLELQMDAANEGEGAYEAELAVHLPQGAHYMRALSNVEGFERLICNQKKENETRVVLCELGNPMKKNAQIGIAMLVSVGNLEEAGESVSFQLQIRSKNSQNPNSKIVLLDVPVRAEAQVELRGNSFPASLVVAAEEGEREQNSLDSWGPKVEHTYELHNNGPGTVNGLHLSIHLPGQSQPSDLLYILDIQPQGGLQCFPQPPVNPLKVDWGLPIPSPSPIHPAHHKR
Sequence (P08514 891-1039 limits assumed): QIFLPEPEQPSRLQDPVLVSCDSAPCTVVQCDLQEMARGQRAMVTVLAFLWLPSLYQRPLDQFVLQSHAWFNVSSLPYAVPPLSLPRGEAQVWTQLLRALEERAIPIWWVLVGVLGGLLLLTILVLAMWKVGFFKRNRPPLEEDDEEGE
Assay: Antagonist activity at GP2b/GP3a receptor in human platelet rich plasma assessed as inhibition of ADP-induced platelet aggregation preincubated for 1 min followed by ADP addition by aggregometric method
Listed compounds paired with reported pIC50
Interpret pIC50 as the negative base-10 log of the concentration measured in mol/L.

Below, each entry is followed by its recorded pIC50 result.
[[record]]
compound = "CCCCS(=O)(=O)NC(Cc1ccc2cc(OCCCN3CCNCC3)ccc2c1)C(=O)O (centres undefined)"
data_value = 6.28

[[record]]
compound = "CCCC(=O)NC(Cc1ccc2cc(OCc3ccc(C(=N)N)cc3)ccc2c1)C(=O)O (centres undefined)"
data_value = 5.97

[[record]]
compound = "O=C(O)C(Cc1ccc2cc(OCCCN3CCNCC3)ccc2c1)NS(=O)(=O)c1ccc(F)cc1 (centres undefined)"
data_value = 6.55


Lookup: Which measured pIC50 belongs to O=C(NC(Cc1ccc2cc(OCCCN3CCNCC3)ccc2c1)C(=O)O)c1cccc(F)c1 (centres undefined) , tested on Integrin alpha-IIb/beta-3 (Homo sapiens, UniProt P08514+P05106)?
Found: 5.20

Lookup: Which measured pIC50 belongs to Cc1ccc(S(=O)(=O)NC(Cc2ccc3cc(OCc4ccc(C(=N)N)cc4)ccc3c2)C(=O)O)cc1 (centres undefined) , tested on Integrin alpha-IIb/beta-3 (Homo sapiens, UniProt P08514+P05106)?
Found: 5.40

Lookup: Which measured pIC50 belongs to CCCC(=O)NC(Cc1ccc2cc(OCCCN3CCNCC3)ccc2c1)C(=O)O (centres undefined) , tested on Integrin alpha-IIb/beta-3 (Homo sapiens, UniProt P08514+P05106)?
Found: 5.27

Lookup: Which measured pIC50 belongs to O=C(O)C(Cc1ccc2cc(OCCCN3CCNCC3)ccc2c1)NS(=O)(=O)c1ccc(Br)cc1 (centres undefined) , tested on Integrin alpha-IIb/beta-3 (Homo sapiens, UniProt P08514+P05106)?
Found: 6.43

* * *

Biological target: Integrin alpha-IIb/beta-3 (Homo sapiens, UniProt P08514+P05106)
Assay: Antagonist activity at GP2b/GP3a receptor in human platelet rich plasma assessed as inhibition of U46619-induced platelet aggregation preincubated for 1 min […] by aggregometric method
REPORTED PROPERTY: IC50 (µM)
Kindly answer with a numeric value in µM, unit omitted.

[[record]]
compound = "O=C(O)C(Cc1ccc2cc(OCCCN3CCNCC3)ccc2c1)NS(=O)(=O)c1ccccc1 (configuration not stated)"
reported_property = "IC50"
data_value = 1.01


Lookup: Dear colleague, I am looking for the recorded IC50 of the following compound: N=C(N)c1ccc(COc2ccc3cc(CC(NS(=O)(=O)c4ccccc4)C(=O)O)ccc3c2)cc1 (configuration not stated)
Found: 23.6

* * *

Target: Integrin alpha-IIb/beta-3 (Homo sapiens, UniProt P08514+P05106)
Assay: Antagonist activity at GP2b/GP3a receptor in human platelet rich plasma assessed as inhibition of thrombin-induced platelet aggregation preincubated for 1 min […] by aggregometric method
Listed compounds paired with reported IC50
Kindly answer with a numeric value in µM, unit omitted.

[[record]]
compound = "O=C(O)C(Cc1ccc2cc(OCCCN3CCNCC3)ccc2c1)NS(=O)(=O)c1ccccc1 (configuration not stated)"
study_system = "Integrin alpha-IIb/beta-3 (Homo sapiens, UniProt P08514+P05106)"
data_value = 0.53


Lookup: Dear colleague, I am looking for the recorded IC50 of the following compound: N=C(N)c1ccc(COc2ccc3cc(CC(NS(=O)(=O)c4ccccc4)C(=O)O)ccc3c2)cc1 (configuration not stated)
Found: 22.9
